Data origin, for the record: patent US20180320217A1

test system: oral lavage; assay: Formation of formazan dyes: oral lavage and diaphorase, not malate (TABLE 11); assay type: biochemical, human; details: oral lavage and diaphorase, not malate; 10 h
Mark TRUE only for Formation of formazan dyes, absorbance, Means 10 h values smaller than 1; exact matches and larger values are FALSE.

Consider the worked cases shown below.
>  <item smiles>
COc1cc([N+](=O)[O-])c(S(=O)(=O)[O-])cc1-n1nc(C(=O)Nc2ccccc2)n[n+]1-c1cc(S(=O)(=O)O)c([N+](=O)[O-])cc1OC

>  <class label>
FALSE

$$$$
>  <item smiles>
COc1cc(-c2ccc(-[n+]3nc(-c4ccc(C(=O)N(CCS(=O)(=O)[O-])CCS(=O)(=O)[O-])cc4)nn3-c3nc4ccccc4s3)c(OC)c2)ccc1-[n+]1nc(-c2ccc(C(=O)N(CCS(=O)(=O)[O-])CCS(=O)(=O)[O-])cc2)nn1-c1nc2ccccc2s1.[Na+].[Na+]

>  <class label>
TRUE

$$$$
>  <item smiles>
Cc1nc(-[n+]2nc(-c3cccc(OCC(=O)O)c3)nn2-c2ccc(S(=O)(=O)[O-])cc2)sc1C

>  <class label>
FALSE

$$$$

We now examine a further compound.
IN: # check: Formation of formazan dyes, absorbance, Means 10 h < 1 for O=[N+]([O-])c1ccc(-[n+]2nc(-c3ccc(S(=O)(=O)[O-])cc3S(=O)(=O)[O-])nn2-c2ccc(I)cc2)cc1.[Na+]
OUT: FALSE

###

test system: diaphorase; test: Formation of formazan dyes: NADH and diaphorase, absence of malate (TABLE 7); type: biochemical, Clostridium kluyveri; conditions: NADH and diaphorase, absence of malate; 1 h
Task for the reader: assign each of the following molecules its reported Formation of formazan dyes, absorbance, Means 1 h.
Answers are plain numbers.

Here is how some molecules turned out for Formation of formazan dyes, absorbance, Means 1 h.
>  <item smiles>
COc1cc(-c2ccc(-[n+]3nc(-c4ccc(C(=O)N(CCS(=O)(=O)[O-])CCS(=O)(=O)[O-])cc4)nn3-c3nc4ccccc4s3)c(OC)c2)ccc1-[n+]1nc(-c2ccc(C(=O)N(CCS(=O)(=O)[O-])CCS(=O)(=O)[O-])cc2)nn1-c1nc2ccccc2s1.[Na+].[Na+]

>  <value measured>
2.81

$$$$
>  <item smiles>
COc1cc([N+](=O)[O-])ccc1-[n+]1nc(-c2ccc(S(=O)(=O)[O-])cc2S(=O)(=O)[O-])nn1-c1ccc([N+](=O)[O-])cc1.[Na+]

>  <value measured>
3.72

$$$$
>  <item smiles>
O=[N+]([O-])c1ccc(-[n+]2nc(-c3ccc(S(=O)(=O)[O-])cc3S(=O)(=O)[O-])nn2-c2ccc(I)cc2)cc1.[Na+]

>  <value measured>
3.60

$$$$

Go through the items and report each one's Formation of formazan dyes, absorbance, Means 1 h.
1. COc1cc([N+](=O)[O-])c(S(=O)(=O)[O-])cc1-n1nc(C(=O)Nc2ccccc2)n[n+]1-c1cc(S(=O)(=O)O)c([N+](=O)[O-])cc1OC
2. Cc1nc(-[n+]2nc(-c3cccc(OCC(=O)O)c3)nn2-c2ccc(S(=O)(=O)[O-])cc2)sc1C

OUT:
1. 2.35
2. 3.24

###

test system: Malate dehydrogenase and diaphorase; test: Formation of formazan dyes: Malate dehydrogenase, diaphorase and malate (TABLE 10); type: biochemical, pig heart; conditions: Malate dehydrogenase, diaphorase and malate; 10 h
Kindly supply the reported Formation of formazan dyes, absorbance, Means 10 h values for the records listed here.
Numbers only.

# example entries with known answers
>  <item smiles>
O=[N+]([O-])c1ccc(-[n+]2nc(-c3ccc(S(=O)(=O)[O-])cc3S(=O)(=O)[O-])nn2-c2ccc(I)cc2)cc1.[Na+]

>  <subject of test>
Malate dehydrogenase and diaphorase

>  <value measured>
1.90

$$$$
>  <item smiles>
COc1cc([N+](=O)[O-])c(S(=O)(=O)[O-])cc1-n1nc(C(=O)Nc2ccccc2)n[n+]1-c1cc(S(=O)(=O)O)c([N+](=O)[O-])cc1OC

>  <subject of test>
Malate dehydrogenase and diaphorase

>  <value measured>
3.90

$$$$
>  <item smiles>
COc1cc([N+](=O)[O-])ccc1-[n+]1nc(-c2ccc(S(=O)(=O)[O-])cc2S(=O)(=O)[O-])nn1-c1ccc([N+](=O)[O-])cc1.[Na+]

>  <subject of test>
Malate dehydrogenase and diaphorase

>  <value measured>
3.30

$$$$
>  <item smiles>
COc1cc(-c2ccc(-[n+]3nc(-c4ccc(C(=O)N(CCS(=O)(=O)[O-])CCS(=O)(=O)[O-])cc4)nn3-c3nc4ccccc4s3)c(OC)c2)ccc1-[n+]1nc(-c2ccc(C(=O)N(CCS(=O)(=O)[O-])CCS(=O)(=O)[O-])cc2)nn1-c1nc2ccccc2s1.[Na+].[Na+]

>  <subject of test>
Malate dehydrogenase and diaphorase

>  <value measured>
2.49

$$$$

Consider now this further compound.
IN: Retrieve Formation of formazan dyes, absorbance, Means 10 h on Malate dehydrogenase and diaphorase; query Cc1nc(-[n+]2nc(-c3cccc(OCC(=O)O)c3)nn2-c2ccc(S(=O)(=O)[O-])cc2)sc1C
OUT: 3.74

###

system: diaphorase; test: Formation of formazan dyes: only diaphorase, not malate (TABLE 13); type: biochemical, Clostridium kluyveri; conditions: 1 h, mean of three experiments
assay metric: Absorbance, formation of formazan dyes (Means)
Give bare numbers.

>  <compound>
O=[N+]([O-])c1ccc(-[n+]2nc(-c3ccc(S(=O)(=O)[O-])cc3S(=O)(=O)[O-])nn2-c2ccc(I)cc2)cc1.[Na+] [WST-1]

>  <value measured>
0.60

$$$$
>  <compound>
COc1cc(-c2ccc(-[n+]3nc(-c4ccc(C(=O)N(CCS(=O)(=O)[O-])CCS(=O)(=O)[O-])cc4)nn3-c3nc4ccccc4s3)c(OC)c2)ccc1-[n+]1nc(-c2ccc(C(=O)N(CCS(=O)(=O)[O-])CCS(=O)(=O)[O-])cc2)nn1-c1nc2ccccc2s1.[Na+].[Na+] [WST-5]

>  <value measured>
0.30

$$$$
>  <compound>
COc1cc([N+](=O)[O-])ccc1-[n+]1nc(-c2ccc(S(=O)(=O)[O-])cc2S(=O)(=O)[O-])nn1-c1ccc([N+](=O)[O-])cc1.[Na+] [WST-8]

>  <value measured>
0.38

$$$$

Record Absorbance, formation of formazan dyes (Means) for all entries; do not skip any.
1. Cc1nc(-[n+]2nc(-c3cccc(OCC(=O)O)c3)nn2-c2ccc(S(=O)(=O)[O-])cc2)sc1C [MTS]
2. COc1cc([N+](=O)[O-])c(S(=O)(=O)[O-])cc1-n1nc(C(=O)Nc2ccccc2)n[n+]1-c1cc(S(=O)(=O)O)c([N+](=O)[O-])cc1OC [XTT]

OUT:
[0.25, 0.49]

###

system: oral lavage; assay: Formation of formazan dyes: oral lavage, malate and diaphorase (TABLE 12); type: biochemical, human; conditions: oral lavage, malate and diaphorase; 2 h
assay metric: Formation of formazan dyes, absorbance, Means 2 h
One number for each entry.

>  <item smiles>
COc1cc([N+](=O)[O-])ccc1-[n+]1nc(-c2ccc(S(=O)(=O)[O-])cc2S(=O)(=O)[O-])nn1-c1ccc([N+](=O)[O-])cc1.[Na+]

>  <value measured>
0.80

$$$$
>  <item smiles>
COc1cc([N+](=O)[O-])c(S(=O)(=O)[O-])cc1-n1nc(C(=O)Nc2ccccc2)n[n+]1-c1cc(S(=O)(=O)O)c([N+](=O)[O-])cc1OC

>  <value measured>
0.94

$$$$
>  <item smiles>
O=[N+]([O-])c1ccc(-[n+]2nc(-c3ccc(S(=O)(=O)[O-])cc3S(=O)(=O)[O-])nn2-c2ccc(I)cc2)cc1.[Na+]

>  <value measured>
1.19

$$$$
>  <item smiles>
COc1cc(-c2ccc(-[n+]3nc(-c4ccc(C(=O)N(CCS(=O)(=O)[O-])CCS(=O)(=O)[O-])cc4)nn3-c3nc4ccccc4s3)c(OC)c2)ccc1-[n+]1nc(-c2ccc(C(=O)N(CCS(=O)(=O)[O-])CCS(=O)(=O)[O-])cc2)nn1-c1nc2ccccc2s1.[Na+].[Na+]

>  <value measured>
0.80

$$$$

Now for a further compound.
IN: Return Formation of formazan dyes, absorbance, Means 2 h for the following compound: Cc1nc(-[n+]2nc(-c3cccc(OCC(=O)O)c3)nn2-c2ccc(S(=O)(=O)[O-])cc2)sc1C
OUT: 1.07

###

Task for the reader: assign each of the following molecules its reported Formation of formazan dyes, absorbance, Means 0 h.
tested on: diaphorase; test: Formation of formazan dyes: NADH, diaphorase and malate (TABLE 8); assay type: biochemical, Clostridium kluyveri; conditions: NADH, diaphorase and malate; 0 h
Give bare numbers.

>  <item smiles>
COc1cc([N+](=O)[O-])c(S(=O)(=O)[O-])cc1-n1nc(C(=O)Nc2ccccc2)n[n+]1-c1cc(S(=O)(=O)O)c([N+](=O)[O-])cc1OC

>  <value measured>
1.95

$$$$
>  <item smiles>
O=[N+]([O-])c1ccc(-[n+]2nc(-c3ccc(S(=O)(=O)[O-])cc3S(=O)(=O)[O-])nn2-c2ccc(I)cc2)cc1.[Na+]

>  <value measured>
2.63

$$$$
>  <item smiles>
COc1cc([N+](=O)[O-])ccc1-[n+]1nc(-c2ccc(S(=O)(=O)[O-])cc2S(=O)(=O)[O-])nn1-c1ccc([N+](=O)[O-])cc1.[Na+]

>  <value measured>
3.06

$$$$
>  <item smiles>
COc1cc(-c2ccc(-[n+]3nc(-c4ccc(C(=O)N(CCS(=O)(=O)[O-])CCS(=O)(=O)[O-])cc4)nn3-c3nc4ccccc4s3)c(OC)c2)ccc1-[n+]1nc(-c2ccc(C(=O)N(CCS(=O)(=O)[O-])CCS(=O)(=O)[O-])cc2)nn1-c1nc2ccccc2s1.[Na+].[Na+]

>  <value measured>
2.62

$$$$

Note: attention shifts to another entry.
IN: Query Formation of formazan dyes, absorbance, Means 0 h for Cc1nc(-[n+]2nc(-c3cccc(OCC(=O)O)c3)nn2-c2ccc(S(=O)(=O)[O-])cc2)sc1C
OUT: 3.01
